Tested on: Escherichia coli TOP10;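 further: peptides expressed intracellularly from a pBAD plasmid library in pooled LB shake-flask culture, induced with 0.3% L-arabinose, DNA abundance read by NGS, three biological replicates, DESeq2 with apeglm shrinkage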
procedure-details: shrunken log2 fold change of peptide-encoding DNA abundance (4.5 h post-induction vs induction); higher = less antimicrobial activity (less host growth inhibition)
settings: time post-induction: 4.5 h; library: site-saturation at positions 5, 18, 19, 20
Hi all, reminder that labels come from shrunken log2 fold change, split as lo = under -0.02, med = from -0.02 up to 0.1, hi = 0.1 and over

Exercise: # classify by shrunken log2 fold change band: RRIRMRPPRLPRPRPRPWRQPRP
Solution: hi

Exercise: # classify by shrunken log2 fold change band: RRIRHRPPRLPRPRPRPTTPPRP
Solution: med

Exercise: # classify by shrunken log2 fold change band: RRIRSRPPRLPRPRPRPGWNPRP
Solution: med

Exercise: # classify by shrunken log2 fold change band: RRIRVRPPRLPRPRPRPVYRPRP
Solution: hi

Exercise: # classify by shrunken log2 fold change band: RRIRKRPPRLPRPRPRPWGIPRP
Solution: lo

Exercise: # classify by shrunken log2 fold change band: RRIRARPPRLPRPRPRPLAEPRP
Solution: hi

Exercise: # classify by shrunken log2 fold change band: RRIRYRPPRLPRPRPRPTENPRP
Solution: lo

Exercise: # classify by shrunken log2 fold change band: RRIRDRPPRLPRPRPRPQIMPRP
Solution: med

Exercise: # classify by shrunken log2 fold change band: RRIRDRPPRLPRPRPRPFFSPRP
Solution: hi

Exercise: # classify by shrunken log2 fold change band: RRIRWRPPRLPRPRPRPGWYPRP
Solution: med

Exercise: # classify by shrunken log2 fold change band: RRIRLRPPRLPRPRPRPMALPRP
Solution: med

Exercise: # classify by shrunken log2 fold change band: RRIRARPPRLPRPRPRPLGIPRP
Solution: lo

Exercise: # classify by shrunken log2 fold change band: RRIRGRPPRLPRPRPRPYTHPRP
Solution: lo

Exercise: # classify by shrunken log2 fold change band: RRIRKRPPRLPRPRPRPSESPRP
Solution: med

Exercise: # classify by shrunken log2 fold change band: RRIRDRPPRLPRPRPRPVNTPRP
Solution: lo

Exercise: # classify by shrunken log2 fold change band: RRIRARPPRLPRPRPRPGRAPRP
Solution: hi

Exercise: # classify by shrunken log2 fold change band: RRIRCRPPRLPRPRPRPVTLPRP
Solution: lo

Exercise: # classify by shrunken log2 fold change band: RRIRVRPPRLPRPRPRPAFNPRP
Solution: lo

Exercise: # classify by shrunken log2 fold change band: RRIRVRPPRLPRPRPRPYAAPRP
Solution: lo

Exercise: # classify by shrunken log2 fold change band: RRIRLRPPRLPRPRPRPEVFPRP
Solution: med

Exercise: # classify by shrunken log2 fold change band: RRIRKRPPRLPRPRPRPKYWPRP
Solution: hi

Exercise: # classify by shrunken log2 fold change band: RRIRERPPRLPRPRPRPWLWPRP
Solution: hi

Exercise: # classify by shrunken log2 fold change band: RRIRQRPPRLPRPRPRPKFPPRP
Solution: hi

Exercise: # classify by shrunken log2 fold change band: RRIRCRPPRLPRPRPRPECPPRP
Solution: hi

Exercise: # classify by shrunken log2 fold change band: RRIRDRPPRLPRPRPRPDDTPRP
Solution: hi

Exercise: # classify by shrunken log2 fold change band: RRIRFRPPRLPRPRPRPMMCPRP
Solution: lo

Exercise: # classify by shrunken log2 fold change band: RRIRCRPPRLPRPRPRPPVSPRP
Solution: hi

Exercise: # classify by shrunken log2 fold change band: RRIRARPPRLPRPRPRPVGCPRP
Solution: hi

Exercise: # classify by shrunken log2 fold change band: RRIRDRPPRLPRPRPRPDCSPRP
Solution: hi

Exercise: # classify by shrunken log2 fold change band: RRIRARPPRLPRPRPRPNATPRP
Solution: hi

Exercise: # classify by shrunken log2 fold change band: RRIRRRPPRLPRPRPRPINQPRP
Solution: med

Exercise: # classify by shrunken log2 fold change band: RRIRPRPPRLPRPRPRPNKFPRP
Solution: lo
